Tested on: LXRa homodimer (NR concentration 270 nM)
Assay: PBM binding z-score (relative to random genomic background probes); higher = stronger binding; sequences stand for … in GC…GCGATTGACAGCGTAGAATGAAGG
Decision: PBM binding z-score compared against -0.2; not below it gives class 1, below it gives class 0.

Hi, just wondering whether CGAACGAGGGCATGAGTTAATAGCAAATGCCGAT shows PBM binding z-score of -0.2 or higher. class 0

Could you please find out whether TAGCCTAGGTCATTCAGGGGCCAGTATAGAAAGC has PBM binding z-score that meets -0.2 or exceeds it? class 1

Entry ATCGAAAAGTCGAGGTGAGTATAGAGAAAGGGAA : is its PBM binding z-score no less than -0.2? class 0

Quick check: does GCAGACAGGTGAAAGGCAGGTAACTCAGGGTGGC have PBM binding z-score greater than or equal to -0.2? class 1

Decide: PBM binding z-score of TAGCCTAGGTCAGAGCGGGCCAGTATACGCTATA >= -0.2? class 0

----------
System: RARa homodimer (NR concentration 270 nM)
Test: PBM binding z-score (relative to random genomic background probes); higher = stronger binding; sequences stand for … in GC…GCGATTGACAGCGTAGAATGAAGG
Label rule not met if PBM binding z-score falls below -0.4; label rule met in every other case.

hey, is PBM binding z-score for this one >= -0.4? ATCTCTAGGTAACAAGTCCAGTGAAAGAGAGGAC rule met

Determine whether measured PBM binding z-score meets or exceeds -0.4 for TCTTGTAGATGAGCAGGTTAAGAAAGCTGGCCAA rule not met

Answer whether PBM binding z-score of TCTTGTAGATCAATAGAGGATAAGAAAGTGCGCT is greater than or equal to -0.4. rule met

Test whether the sequence CTCGTAAGGTCGGTTGAGGTGAGTATACGGATAA records PBM binding z-score of -0.4 or higher. rule met

Could you verify whether the entry TCGAGTTGGTTACCAATGGGGCATTCAGCTTTCT shows PBM binding z-score of no less than -0.4? rule not met

Does the sequence CCTAGCAGGCCAATCTGGGTCACTCTAGGCTTGA have recorded PBM binding z-score that is -0.4 or more? rule not met

----------
Test system: PPARg DBDmut:RXRa IVT, anti-PPARg (DBD mutation: PPARg1 K132A/R137A, NR concentration 270 nM, RXRa partner concentration 90 nM)
Assay: PBM binding z-score (relative to random genomic background probes); higher = stronger binding; sequences stand for … in GC…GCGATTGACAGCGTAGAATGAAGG
Classification scheme (PBM binding z-score): low (below 0.3), moderate (0.3 to below 1), high (1 or more)

Which class holds AGTCAAAGTTCATCTACGTAACGTAAGATATGCT ? high

Which bin should I file ATCTCTAGGTAAGACTAAGTTCAGTGAAGAACGC under? moderate

// return the class label for TCGAGTGGGTTACCAATGGGGCATTCAGCTTTCT low

Where would CCTACTGTGCCAAAGGTCATTGATTCCAATGCTC land among the classes by reported PBM binding z-score? moderate

Which class holds CCTATTAGTTGACCATAAGGGCACCCGAAGCTCG ? low

Lab note: sort AGAATGAGGTTAAGATCAGGGACACAGAATACAT into the matching PBM binding z-score band. high

Sort CAAACTAGGTCACCGGAAGGTCAAACTCCGCATG into one of the categories. high

Place this sequence in its band: GTACCAGGGTGAATAGGTCGTTGATGAGTAGGCG low

Which category does the recorded PBM binding z-score put GCAGACAGGTGAAACGCAGGAAACTCAGGGTGGC in? low

Category of AGAATGAGGTGACCAAAGATCAGGGAAACGCTTG : moderate

Determine which band this sequence sits in: TCTTGTGGATCAAGCAGGTTAAGAAAGCCTGAGT low

Category of AGAATGAGGTTACCAAAGATCACGGAAACGCTTG , please. high

Any idea which band TCGAGTAGGTTACCAATGGGGGATTCAGCTTTCT is in? high

Assign a category based on measured PBM binding z-score for TAGCCTAGGTCTTTCAGGGGCCAGTATAGAAAGC and give only the class name. low

Field: class (PBM binding z-score) — entry: CGAACTAGGTCAGCCAGGACAGTGAATACATTGA high

Sort CGTCCAAGGTCATAGGAGGTCGGTGAAGACAGAT into one of the categories. low

Band assignment needed for CGTCCAAGATCAGCAGGTCAGTGAAAGCGACGTG please. low

Each sequence maps to one class by PBM binding z-score. Which class for TAGCCTAGGTCATGCGGGCCAGTCTAGTGTCGGC ? low

Determine which band this sequence sits in: ATCTCTAGGTAAAAAGTTCAGTGAAAGAGAGGAC high

Into which bin does this sequence go? ACTAGCAGGCCAAGTTTGGGTCACTCAGACAAAG low

Exercise: read the entry CCTTACGGGTCACGAGGTTATAGGACGACGAGCG and state which class it falls under. high

Kindly state the category for this sequence: ATATGTAGGTTACATCCGGGACATTCAGGCTATG high

Bin this entry: TCTGATAGGTCAGTTGGTCAGCTAACGAGCTGCC low

Place this sequence in its band: TCTTATAGATCAACAGGAGGTTAAGAAAGATCGA moderate

Which class holds TCATATAGGTAAAAGGTGAGAGTCGGTGTGGTAA ? high

Please report the category associated with TCATATATGTAAATGCTAGGTGAAAGTCCGATCT , nothing else. high

Assign a bin to TATACAGGGTCAACGGCCAGAGTACGAATGTCGA high

Dear colleague, I would appreciate it if you could identify the bin for TCTTGTAGATCATCAGGAGGTTAAGAAAGATCGA and reply at your convenience. high

Hi, small favor: classify ACAGACAGATGATGAAGGTAACTCAGGCTATCAT by its PBM binding z-score when you get a moment. high

Lab note: sort CCTACTAGGTCATGGTCAGCTAATCTACAGTATG into the matching PBM binding z-score band. high

GET /class?item= ATCGAAAGGTCGAAGGTGAGTTTACCCACCCGAA moderate

Band assignment needed for GCTTATGGGTCAAAGGTTATAGCATGAATAGAAT please. high

Field: class (PBM binding z-score) — entry: CATACAGGGTCAGCTAGGCTAGAGTAGGGACGGC moderate

The entry to classify is TCGAGTGGGTTAGTCGGGGCATTCAGCCAACATA ; which class holds it? low

// return the class label for TCATATAGGAAATACAGGTGAAAGTCGGCATCTA high

Looking at CGTCCAAGGTCAGAGAGGTCAGTTAATGCCGAGT , which class would you pick? moderate

Band assignment needed for CCTTACGGGTCACTGACAGGTTATAGCCTTTGGA please. low

Given TTACCAAGGTGAGCTGACGTCGTTGATCCAACTC , name the class its PBM binding z-score places it in. low

Into which bin does this sequence go? GGAACGAGGGCAAAGTTGATAGCATCTGTCGACG moderate

# classify by PBM binding z-score band: CAAACTAGGTCAAGAGGGCAAAGTCCGCTTCCCG high

Into which category would you place CCTAGTTGGTCAAGGTCACACAAGCTATAGGTAC ? high

Tag the class for AGAATGAGGTTAAAATCAGGGAAACAGAATACAT moderate

Categorize the following entry: CGTCCAAGGTCTGCAGGTCAGTGAAAGCGACGTG low

Lab note: sort ACTTACGGGTCAACGAGGTTATAGGACGCGTATA into the matching PBM binding z-score band. high

Field: class (PBM binding z-score) — entry: CGAACTAGGTCAGGGACAGTGAATCTCCGCACGC high

Kindly identify the class of CCGACTGGGGCTGAAAGGTTACCATACCATCCGG . low

Pick a category. Item: CGTCCTAGGTCATAGGAGGTCAGTGAAGACAGAT low

Returns: class label. Input: CGAACTAGGTCATCCAGGACAGTGTATACATTGA high

// return the class label for TCTATTAGTTCATTAGGGCAACCGAAACAGCGGA high
